- Test system: Septoria tritici
- assay_method_text: Leaf Blotch of Wheat, 1-day protectant whole plant test
- Assay type: in vivo
- test_parameters: Zymoseptoria tritici, 24 h; 100 ppm spray, wheat plants (variety Monon), one-day protectant test, vs untreated inoculated plants; read-out: SEPTTR percent control
outcome_measure: pest or weed control at 100 ppm

Please review the entries below; each comes with its answer.
> print(dat)
                                   compound                  outcome.measure  result.value
1  CC(C)OC(=O)N[C@H](CS(=O)(=O)C(C)c1ccc(C#N)cc1)C(C)C (some centres unmarked)  pest or weed control at 100 ppm         < 20%
2  CC(C)OC(=O)N[C@H](CS(=O)(=O)C(C)c1ccc(Cl)c(Cl)c1)C(C)C (some centres unmarked)  pest or weed control at 100 ppm         < 20%
3  CC(C)OC(=O)N[C@H](CS(=O)(=O)C(C)c1ccc(Br)nc1)C(C)C (some centres unmarked)  pest or weed control at 100 ppm         < 20%
4  CC(C)[C@@H](CS(=O)(=O)C(C)c1ccc(C#N)cc1)NC(=O)OCC(Cl)(Cl)Cl (some centres unmarked)  pest or weed control at 100 ppm     50 to 89%
5  CC(C)OC(=O)N[C@H](CS(=O)(=O)C(Cl)c1ccc(Cl)cc1)C(C)C (some centres unmarked)  pest or weed control at 100 ppm         < 20%
6  CC(C)OC(=O)N[C@H](CS(=O)(=O)C(C)c1ccc([N+](=O)[O-])cc1)C(C)C (some centres unmarked)  pest or weed control at 100 ppm         < 20%

QUERY: What pest or weed control at 100 ppm value was documented for this compound, CC(C)OC(=O)N[C@H](CS(=O)(=O)C(C)c1ccc(Br)cc1)C(C)C (some centres unmarked) ?
RESULT: < 20%

QUERY: Similarly, C#CCCOC(=O)N[C@H](CS(=O)(=O)C(C)c1ccc(Br)cc1)C(C)C (some centres unmarked) ?
RESULT: 50 to 89%
